# measured-on: HLA-B*48:01
# procedure-text: IEDB peptide-MHC binding, purified MHC/direct/fluorescence; filed as Kd, often an IC50 or EC50 that approximates it; bounds were set here for any values at or beyond the usual limits of such assays
# condition-set: source organism: Influenza A virus (A/SW/MN/12883/00(H1N2))
assay-metric: Kd

What value of measured Kd is listed for FPNEVGARI ?
≥ 20 µM

* * *

# measured-on: HLA-A*02:01
# procedure-text: IEDB peptide-MHC binding, purified MHC/competitive/fluorescence; filed as Kd, often an IC50 or EC50 that approximates it; bounds were set here for any values at or beyond the usual limits of such assays
# condition-set: source organism: Bacillus anthracis str. Ames
pKd: −log10 of the molar value.
assay-metric: pKd

What value of measured pKd is listed for VILYFMYRK ?
≤ 4.70

Numbers sourced from the Immune Epitope Database (IEDB).
